I'd appreciate it if you could supply melting point values for the items below.

Here is how some molecules turned out for melting point.
Cc1cn2cc(-c3cc4ccc(N5CCN(C6CC6)CC5)cc4oc3=O)nc2cn1 [Compound 811] = 287 to 289 °C
Cc1cccn2cc(-c3cc4ccc(N5CCN6CCC5CC6)cc4oc3=O)nc12 [Compound 505] = 278 °C (dec.)
Cc1cc(F)c2nc(-c3cc4ccc(N[C@@H]5CCNC5)cc4oc3=O)cn2c1 [Compound 583] = 231 to 238 °C
Cn1ccc(-c2cc3ccc(N4CCNCC4)cc3oc2=O)n1 [Cpd 38] = 224 to 228 °C
Cc1cn2cc(-c3cc4ccc(OCCN5CCOCC5)cc4oc3=O)nc2c(C)n1 [Compound 956] = 175 to 177 °C
COc1cccn2cc(-c3cc4ccc(N5CCCN(C)CC5)cc4oc3=O)nc12 [Compound 419] = 212 to 215 °C

Give melting point for each of the items listed below.
1. COc1cc(-c2cc3ccc(N4CCN(C)CC4)cc3oc2=O)ccn1 [Compound 165]
2. CN(CCO)Cc1ccc2cc(-c3nc4ccccc4s3)c(=O)oc2c1 [Compound 79]

["169 to 171 °C", "182 to 184 °C"]

Would you mind telling me what melting point value was observed for O=c1oc2c(F)c(N3CCNCC3)ccc2cc1-c1ccccn1 [Compound 155] ? 147 to 153 °C

====

Property Measured: melting point

C[C@@H]1CN(c2ccc3cc(-c4nc5c(Cl)cccc5s4)c(=O)oc3c2)C[C@H](C)N1 [Compound 25] = 229 to 235 °C
Cc1cn2cc(-c3cc4ccc(N5CCCN(C)CC5)cc4oc3=O)ccc2n1 [Compound 653] = 175 to 178 °C
Cc1cn2cc(-c3cc4ccc(N5CCN(C6CC6)CC5)cc4oc3=O)nc2c(C)n1 [Compound 762] = 263 to 266 °C

Could you share which melting point value was measured for CN1CCN(c2ccc3cc(-c4cn5cccnc5n4)c(=O)oc3c2)CC1 [Compound 87] ? > 310 °C

====

Provide the reported melting point of each item.

C[C@@H]1CN(c2ccc3cc(-c4cn5cccc(F)c5n4)c(=O)oc3c2)C[C@H](C)N1 [Compound 338] = 176 to 180 °C

Dear reader, for each entry below, please note its melting point.
1. Cc1cn2cc(-c3cc4ccc(N5CCC(N(C)C)CC5)cc4oc3=O)nc2c(C)n1 [Compound 921]
2. CN(C)Cc1ccc2cc(-c3cn4ccsc4n3)c(=O)oc2c1 [Compound 198]
3. CCN1CCC(c2ccc3cc(-c4cn5cc(C)nc(C)c5n4)c(=O)oc3c2)CC1 [Compound 749]

1: 189 to 193 °C; 2: 135 to 140 °C; 3: 218 to 223 °C

Please state melting point for every compound in the list that follows.
1. C[C@@H]1CN(c2ccc3cc(-c4cn5cccc(Cl)c5n4)c(=O)oc3c2)C[C@H](C)N1 [Compound 120]
2. Cc1ccn2cc(-c3cc4ccc(N5CCCN(C)CC5)cc4oc3=O)nc2c1 [Compound 217]
3. C[C@@H]1CN(c2ccc3cc(-c4cn5cccc(C(F)(F)F)c5n4)c(=O)oc3c2)C[C@H](C)N1 [Compound 211]
4. O=c1oc2cc(CN3CCCCC3)ccc2cc1-c1nc2ccccc2s1 [Compound 59]

["286 °C (dec.)", "200 to 206 °C", "295 to 298 °C", "201 to 205 °C"]
